Values compiled from patent US12459930B2.

system: MDAMB231 spheres (cancer stem cells); assay: In vitro sphere-forming assay (cancer stem cells), MDAMB231 in Mammosphere media; details: Homo sapiens, MDA-MB-231, read-out: % Viability of spheres (MDAMB231)
quantity-kind: viability at 25 µM (%)
Number in %, nothing else.

c1ccc2c(-c3ccc4c(c3)OCO4)ccc(OCCCCCCN3CCOCC3)c2c1 :: 13

I am curious: what viability at 25 µM value has been reported for C=CCNCCCCCCOc1ccc(-c2ccc3c(c2)OCO3)c2c1CCCC2 ?
0

I am curious: what viability at 25 µM value has been reported for COc1cccc(-c2ccc(OCCN3CCOCC3)c3ccccc23)c1 ?
11

I am curious: what viability at 25 µM value has been reported for O=C1OCc2c1c(-c1ccc3c(c1)OCO3)c1cc3c(cc1c2OCCN1CCOCC1)OCO3 ?
0

I am curious: what viability at 25 µM value has been reported for c1cc2c(cc1-c1ccc(OCCCCCCN3CCOCC3)c3c1CCCC3)OCO2 ?
0

I am curious: what viability at 25 µM value has been reported for c1ccc2c(-c3ccc4c(c3)OCO4)ccc(OCCCCNC3CCCCC3)c2c1 ?
9

I am curious: what viability at 25 µM value has been reported for O=C(CCCOc1ccc(-c2ccc3c(c2)OCO3)c2ccccc12)N1CCOCC1 ?
19

* * *

system: PC3 spheres (cancer stem cells); assay: In vitro sphere-forming assay (cancer stem cells), PC3 in Prostosphere media; details: 25 uM; 2000 cells/well; n = 6 ± S.D
quantity-kind: 3D sphere count of PC3 in Prostosphere media

c1cc2c(cc1-c1ccc(OCCN3CCOCC3)c3c1CCCC3)OCO2 :: 36(±2)
c1ccc2c(-c3ccc4c(c3)OCO4)ccc(OCCCCN3CCOCC3)c2c1 :: 28(±3)
O=C1OCc2c1c(-c1ccc3c(c1)OCO3)c1cc3c(cc1c2OCCCCN1CCOCC1)OCO3 :: 27(±3)

I am curious: what 3D sphere count of PC3 in Prostosphere media value has been reported for CN1CCN(CCCCOc2ccc(-c3ccc4c(c3)OCO4)c3c2CCCC3)CC1 ?
13(±2)

I am curious: what 3D sphere count of PC3 in Prostosphere media value has been reported for CCOC(=O)N1CCN(CCCCCCOc2c3c(c(-c4ccc5c(c4)OCO5)c4cc(OC)c(OC)cc24)C(=O)OC3)CC1 ?
23(±3)

* * *

Collected IC50 values appear next to each entry.
system: PC3 prostate cancer cell line; test: Soft agar colony-formation assay, PC3; assay type: cell-based; details: 168 h, 1 week, Alamar Blue, read-out: IC50 in micromolar, PC3 (Soft Agar Assay)
Number in µM, nothing else.

c1ccc2c(-c3ccc4c(c3)OCO4)ccc(OCCCCCCN3CCOCC3)c2c1 [Formula IV] :: 7.5

PC3 prostate cancer cell line / IC50 / c1cc2c(cc1-c1ccc(OCCCCCCN3CCOCC3)c3c1CCCC3)OCO2 [Formula XX] : value?
3.31

PC3 prostate cancer cell line / IC50 / O=C1OCc2c1c(-c1ccc3c(c1)OCO3)c1cc3c(cc1c2OCCN1CCOCC1)OCO3 [Formula XI] : value?
5.12

PC3 prostate cancer cell line / IC50 / c1cc2c(cc1-c1ccc(OCCN3CCOCC3)c3c1CCCC3)OCO2 [Formula XXI] : value?
2.75

PC3 prostate cancer cell line / IC50 / O=C1OCc2c1c(-c1ccc3c(c1)OCO3)c1cc3c(cc1c2OCCCCN1CCOCC1)OCO3 [Formula XIII] : value?
3.84

PC3 prostate cancer cell line / IC50 / c1ccc2c(-c3ccc4c(c3)OCO4)ccc(OCCN3CCOCC3)c2c1 [Formula X] : value?
10.3

* * *

system: MDAMB231 breast cancer cell line; assay: Soft agar colony-formation assay, MDAMB231; assay type: cell-based; conditions: Homo sapiens, MDA-MB-231, 168 h, 1 week, Alamar Blue, read-out: IC50 in micromolar, MDAMB231 (Soft Agar Assay)
quantity-kind: IC50 (µM)
Number in µM, nothing else.

Consider the reported IC50 for these compounds:
COc1cc2c(OCCCCN3CCOCC3)c3c(c(-c4ccc5c(c4)OCO5)c2cc1OC)C(=O)OC3.Cl [Formula VII, Hydrochloride] :: 2.05
O=C1OCc2c1c(-c1ccc3c(c1)OCO3)c1cc3c(cc1c2OCCCCN1CCOCC1)OCO3 [Formula XIII] :: 3.03
c1cc2c(cc1-c1ccc(OCCCCCCNC3CCCCC3)c3c1CCCC3)OCO2 [Formula XVIII] :: 4.18

I am curious: what IC50 value has been reported for CN1CCN(CCCCOc2ccc(-c3ccc4c(c3)OCO4)c3c2CCCC3)CC1 [Formula XIX] ?
3.41

* * *

system: PC3 spheres (cancer stem cells); experiment: In vitro sphere-forming assay (cancer stem cells), PC3 in Prostosphere media; settings: 0.25 uM; 2000 cells/well; n = 6 ± S.D
Collected 3D sphere count of PC3 in Prostosphere media values appear next to each entry.

c1ccc2c(-c3ccc4c(c3)OCO4)ccc(OCCCCNC3CCCCC3)c2c1 :: 39(±5)

I am curious: what 3D sphere count of PC3 in Prostosphere media value has been reported for COc1cccc(-c2ccc(OCCN3CCOCC3)c3ccccc23)c1 ?
36(±3)

I am curious: what 3D sphere count of PC3 in Prostosphere media value has been reported for O=C1OCc2c1c(-c1ccc3c(c1)OCO3)c1cc3c(cc1c2OCCCCN1CCOCC1)OCO3 ?
35(±3)

I am curious: what 3D sphere count of PC3 in Prostosphere media value has been reported for COc1cc2c(OCCCCN3CCOCC3)c3c(c(-c4ccc5c(c4)OCO5)c2cc1OC)C(=O)OC3.Cl ?
41(±3)

I am curious: what 3D sphere count of PC3 in Prostosphere media value has been reported for c1ccc2c(-c3ccc4c(c3)OCO4)ccc(OCCN3CCOCC3)c2c1 ?
53(±3)

I am curious: what 3D sphere count of PC3 in Prostosphere media value has been reported for CN1CCN(CCCCOc2ccc(-c3ccc4c(c3)OCO4)c3c2CCCC3)CC1 ?
35(±3)

I am curious: what 3D sphere count of PC3 in Prostosphere media value has been reported for c1ccc2c(-c3ccc4c(c3)OCO4)ccc(OCCCCN3CCOCC3)c2c1 ?
41(±2)

I am curious: what 3D sphere count of PC3 in Prostosphere media value has been reported for O=C1OCc2c1c(-c1ccc3c(c1)OCO3)c1cc3c(cc1c2OCCN1CCOCC1)OCO3 ?
32(±4)

I am curious: what 3D sphere count of PC3 in Prostosphere media value has been reported for c1cc2c(cc1-c1ccc(OCCN3CCOCC3)c3c1CCCC3)OCO2 ?
50(±2)

* * *

system: MDAMB231 spheres (cancer stem cells); assay: In vitro sphere-forming assay (cancer stem cells), MDAMB231 in Mammosphere media; settings: 0.0025 uM; 2000 cells/well; n = 6 ± S.D
quantity-kind: 3D sphere count of MDAMB231 in Mammosphere media

COc1cc2c(OCCCCN3CCOCC3)c3c(c(-c4ccc5c(c4)OCO5)c2cc1OC)C(=O)OC3.Cl :: 58(±3)
C=CCNCCCCCCOc1ccc(-c2ccc3c(c2)OCO3)c2c1CCCC2 :: 47(±3)
c1cnc2c(OCCCCCCN3CCOCC3)ccc(-c3ccc4c(c3)OCO4)c2c1 :: 61(±3)

Now, please, on to the next compound.
MDAMB231 spheres (cancer stem cells) / 3D sphere count of MDAMB231 in Mammosphere media / COc1cccc(-c2ccc(OCCN3CCOCC3)c3ccccc23)c1 : value?
47(±4)

* * *

test system: MDAMB231 spheres (cancer stem cells); experiment: In vitro sphere-forming assay (cancer stem cells), MDAMB231 in Mammosphere media; conditions: 2.5 uM; 2000 cells/well; n = 6 ± S.D
quantity-kind: 3D sphere count of MDAMB231 in Mammosphere media

Consider the reported 3D sphere count of MDAMB231 in Mammosphere media for these molecules:
c1cc2c(cc1-c1ccc(OCCCCCCN3CCOCC3)c3c1CCCC3)OCO2 :: 14(±4)
c1ccc2c(-c3ccc4c(c3)OCO4)ccc(OCCN3CCOCC3)c2c1 :: 21(±3)
c1ccc2c(-c3ccc4c(c3)OCO4)ccc(OCCCCCCN3CCOCC3)c2c1 :: 25(±2)
c1cnc2c(OCCCCCCN3CCOCC3)ccc(-c3ccc4c(c3)OCO4)c2c1 :: 37(±3)
c1ccc2c(-c3ccc4c(c3)OCO4)ccc(OCCCCNC3CCCCC3)c2c1 :: 21(±3)

I am curious: what 3D sphere count of MDAMB231 in Mammosphere media value has been reported for COc1cccc(-c2ccc(OCCN3CCOCC3)c3ccccc23)c1 ?
30(±3)

I am curious: what 3D sphere count of MDAMB231 in Mammosphere media value has been reported for COc1cc2c(OCCCCN3CCOCC3)c3c(c(-c4ccc5c(c4)OCO5)c2cc1OC)C(=O)OC3.Cl ?
29(±3)

I am curious: what 3D sphere count of MDAMB231 in Mammosphere media value has been reported for c1ccc2c(-c3ccc4c(c3)OCO4)ccc(OCCCCN3CCOCC3)c2c1 ?
28(±3)

I am curious: what 3D sphere count of MDAMB231 in Mammosphere media value has been reported for c1cc2c(cc1-c1ccc(OCCCCCCNC3CCCCC3)c3c1CCCC3)OCO2 ?
28(±3)
